Values from the supplement of paper PMC10567573

protein stability index values by entry
B1: MATN2 (parent)
chain: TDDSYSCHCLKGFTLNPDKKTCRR

variants of: B1; experiment: protein stability index of a GFP-peptide fusion (GPS, HEK-293T) (PSI 1-6); higher = more stable; conditions: c terminus: a fixed tail appended;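 note: lentivirally expressed fusions sorted by FACS into six bins by GFP to DsRed ratio, PSI derived from sequencing read proportions per bin multiplied by bin number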
Give only the figure.

L15H ... 1.97
C7K ... 4.21
D2H ... 2.15
L10W ... 2.98
L15T ... 2.02
T21W ... 1.83
S6R ... 2.4
N16G ... 2.23

Asked: In one line, give reported protein stability index of the entry C22E .
Given back: 2.02

Asked: Entry P17G needs its protein stability index filled in; supply it.
Given back: 2.57

Asked: Given the variant K19H , write its reported protein stability index.
Given back: 3.66

Asked: Quickly give me recorded protein stability index for R24Q
Given back: 2.61

Asked: Please report the measured protein stability index for D3N
Given back: 2.1
